What Mean % WT Binding was measured for each of the following?
# Measurement target: human CD33 W60A (human, UniProt P20138 18-364)
# Sequence (P20138 18-364 W60A limits assumed): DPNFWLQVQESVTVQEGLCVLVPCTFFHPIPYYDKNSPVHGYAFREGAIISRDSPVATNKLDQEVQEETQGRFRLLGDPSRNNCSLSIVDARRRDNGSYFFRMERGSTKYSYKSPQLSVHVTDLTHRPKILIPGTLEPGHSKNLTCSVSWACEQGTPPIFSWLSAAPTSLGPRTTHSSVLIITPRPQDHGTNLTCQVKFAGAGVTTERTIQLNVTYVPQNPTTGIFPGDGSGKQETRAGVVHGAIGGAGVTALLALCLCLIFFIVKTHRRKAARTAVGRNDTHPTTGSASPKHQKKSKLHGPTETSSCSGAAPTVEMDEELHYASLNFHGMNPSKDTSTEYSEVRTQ
# Method summary: alanine scan, flow cytometry;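 also: HEK293-T cells transiently expressing single-residue alanine mutants of CD33 (alanine swapped to serine), antibody binding read by fluorescence in duplicate, background-subtracted, expressed relative to wild-type CD33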
Please state the figure in % WT; there is no need to write the unit.

query: Any idea what its Mean % WT Binding is? The binder is Refmab #1 (antibody, V domains shown, Full-length format is human IgG1 (Absolute Antibody Ab00283-10.0); The alanine scan used IgG or Fab; also called hP67.6) VH: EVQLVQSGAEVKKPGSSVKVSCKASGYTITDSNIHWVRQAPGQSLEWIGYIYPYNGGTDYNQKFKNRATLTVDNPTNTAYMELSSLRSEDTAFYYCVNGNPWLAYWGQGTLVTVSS VL: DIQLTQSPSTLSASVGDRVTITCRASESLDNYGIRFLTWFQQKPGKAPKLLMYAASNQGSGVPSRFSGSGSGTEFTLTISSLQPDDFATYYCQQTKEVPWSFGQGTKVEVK
result: 0.7

query: Let us now turn to Refmab #4 (antibody, V domains shown, Full-length format is human IgG1 Fc silent (PG-LALA); The alanine scan used IgG or Fab) VH: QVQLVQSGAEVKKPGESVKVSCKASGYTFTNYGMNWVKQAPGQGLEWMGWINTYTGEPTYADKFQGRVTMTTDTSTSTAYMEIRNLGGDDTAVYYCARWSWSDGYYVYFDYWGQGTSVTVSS VL: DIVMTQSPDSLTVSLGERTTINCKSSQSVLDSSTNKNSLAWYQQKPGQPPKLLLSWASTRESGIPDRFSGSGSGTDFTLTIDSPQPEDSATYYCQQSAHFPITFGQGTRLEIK
result: 1

query: Let us now turn to Refmab #2 (antibody, V domains shown, Full-length format is human IgG1 Fc silent (PG-LALA); The alanine scan used IgG or Fab) VH: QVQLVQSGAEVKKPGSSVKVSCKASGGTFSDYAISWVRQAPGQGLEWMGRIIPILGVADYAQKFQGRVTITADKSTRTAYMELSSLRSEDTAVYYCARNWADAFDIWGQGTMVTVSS VL: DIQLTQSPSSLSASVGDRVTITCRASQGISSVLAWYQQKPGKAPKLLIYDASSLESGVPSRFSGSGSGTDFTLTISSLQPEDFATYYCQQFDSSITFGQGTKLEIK
result: 2.8

query: Let us now turn to Refmab #3 (antibody, V domains shown, Full-length format is human IgG1 Fc silent (PG-LALA); The alanine scan used IgG or Fab) VH: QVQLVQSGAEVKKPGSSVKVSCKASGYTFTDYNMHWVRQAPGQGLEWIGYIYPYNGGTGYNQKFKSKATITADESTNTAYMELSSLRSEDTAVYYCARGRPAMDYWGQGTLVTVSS VL: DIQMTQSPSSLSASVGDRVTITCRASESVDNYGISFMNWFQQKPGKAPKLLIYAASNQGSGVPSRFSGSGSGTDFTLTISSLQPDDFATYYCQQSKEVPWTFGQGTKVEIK
result: 28.3
